B1: glmS ribozyme (parent)
chain: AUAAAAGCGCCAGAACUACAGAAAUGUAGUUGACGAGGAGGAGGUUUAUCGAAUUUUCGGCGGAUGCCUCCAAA

variants of: B1; experiment: self-cleavage kobs at 160 uM GlcN6P; higher = faster cleavage; RNA array; details: with glucosamine-6-phosphate
Fewer inactive variants are shown than the library holds.
self-cleavage kobs at 160 uM GlcN6P by entry:
recordedMetric: self-cleavage kobs at 160 uM GlcN6P (s⁻¹)

>>> print(df.to_string())
                               querysequence                       recordedmetric  qual  endpointresult
 0  AUAAAAACGCCAGAACUACAGAAAUGUAGUUCACGAGGAGGAGGUUUAUCGAAUUUUCGGCGGAUGCCUCCAAA [G7A G32C]  self-cleavage kobs at 160 uM GlcN6P     <           1e-05
 1  AUAAAAGCGCCUGAACUACAGAAAUGUAGUUGACGAGGAGGAGGUUUAUCGAAUUGGAGGCGGGUGCCUCCAAA [A12U U56G U57G C58A A64G]  self-cleavage kobs at 160 uM GlcN6P     =        5.96e-05
 2  AUAAAAGCGCCAGAACUACAGAAAUGUAUUUGACGACGAGGCGGUAUAUCGAAUUUUCGGCGGAUGCCUCCAAA [G29U G37C A42C U46A]  self-cleavage kobs at 160 uM GlcN6P     <           1e-05
 3  AUAAAAACGCCAGAACUACAGAAAUGUAUUUGACGAGGAGGAGGUUUAUCGAAUUUUCGGCGGAUGCCUCCAAA [G7A G29U]  self-cleavage kobs at 160 uM GlcN6P     <           1e-05
 4  AUAAAAGCGCCAGAACUACAGAAAUGUAGUUGACGAGGAGGCGGUUUAUCGAAUUUUCGGCGGAUGCCGCCAAA [A42C U69G]  self-cleavage kobs at 160 uM GlcN6P     =         0.00249
 5  AUAAAAGCGCCAGAACUACAGAAAUGUAGUUGACGAGGAGGAGAUUUAUCGAAUUUUCGGCGUAUGCCUCCAAA [G44A G63U]  self-cleavage kobs at 160 uM GlcN6P     <           1e-05
 6  AUAAAAGCGCCAGAACUACAGAAAUGUAGUUGACUAGGAGGAGGUUUAUCGAAUUUUCCGCGGAUGCCUCCAAA [G35U G59C]  self-cleavage kobs at 160 uM GlcN6P     <           1e-05
 7  AUAAAAGCGCCAGAACUACAGACAUGUAGUUGACGAGGAGGAGGUUUAUCGAAUUUUCGGCGGAUGCCUCUAAA [A23C C71U]  self-cleavage kobs at 160 uM GlcN6P     =        0.000719
 8  AUAAAAGCGCCAGAACUACAGAAAUGUAGCUGACGAGGAGGAGGUUUUUCGAAUUUUCGGCGGAUGCCUCCAAA [U30C A48U]  self-cleavage kobs at 160 uM GlcN6P     <           1e-05
 9  AUAAAAGCGCCAGAACUACAGAAAUGUAGUUGACGAGGAGGAGGUUUAUCGACUUUUCGGCGGAUGCCUCAAAA [A53C C71A]  self-cleavage kobs at 160 uM GlcN6P     =        6.89e-05
10  AUAAAAGCGCCAGAACUACAGAAAUGUAGCUGACGAGGAGGACGUUUAUCGAAUUUUCGGCGGAUGCGUCCAAA [U30C G43C C68G]  self-cleavage kobs at 160 uM GlcN6P     =        7.51e-05
11  AUAAAAGCGCCAGAACUACAGAAAUGUAGUUGACGAGGAGGAGGUUUAUCGAAUUUUCGGCGGAAGCCUACAAA [U65A C70A]  self-cleavage kobs at 160 uM GlcN6P     =         4.4e-05
12  AUAAAAGCGCCAGAAGUACAGAAAUGUAGUUGACGAGGAGGAGGUUUAUCUAAUUUUCGCCGGAUGCCUCCAAA [C16G G51U G60C]  self-cleavage kobs at 160 uM GlcN6P     <           1e-05
13  AUAAAAGCGACAGAACUACAGAAAUGUAGAUGACGAGGAGGAGGUUUAUCGAAUUUUCGGCGGAUGCCUCCAAA [C10A U30A]  self-cleavage kobs at 160 uM GlcN6P     <           1e-05
14  AUAAAAGCGCCAGAACUACAGAAAUGUAGUUGACGAGGAGGAGGUUUGUCUAAUUUUCGGCGGAUGCCUCCAAA [A48G G51U]  self-cleavage kobs at 160 uM GlcN6P     <           1e-05
15  AUAAAAGCGCCAGAACUACAGAAAUGUAGUUGACGAGGAGGAGGUUUAUCGAAUAUUCGGCGGAUGCUUCCAAA [U55A C68U]  self-cleavage kobs at 160 uM GlcN6P     =        0.000841
16  AUAAAAGCGCCAGACCUACAGAAAUGUAGUUGACGAGGAGGAAGUUUAUCGAAUUUUCGGCGGAUGCCUCCAAA [A15C G43A]  self-cleavage kobs at 160 uM GlcN6P     <           1e-05
17  AUAAAAGCGCCAAAACUACAGAAAUGUAGUUGACGAGGAGGAGGUUUUUCGAAUUUUCGGCGGAUGCCUCCAAA [G13A A48U]  self-cleavage kobs at 160 uM GlcN6P     <           1e-05
18  AUAAAAGCGCCAGAACUACAGAAAUGUAGUUGACGAGGAUGAGGUUUAUCGAAUUUUCGGCGGUUGCCUCCAAA [G40U A64U]  self-cleavage kobs at 160 uM GlcN6P     <           1e-05
19  AUAAAAGCGCCAGAACUACAGAAAUGUAGUUGACGAGGAGGAGGUUUAUCGAAUUUUCGGCGGACGCCUUCAAA [U65C C70U]  self-cleavage kobs at 160 uM GlcN6P     =        3.71e-05
20  AUAAAAGCGCCAGAACUACAGAAAUGUAGUUGACGAGGAGGAGGUUUAUCGAAUGUUCGGCGGAUGACUCCAAA [U55G C67A]  self-cleavage kobs at 160 uM GlcN6P     =        0.000394
21  AUAAAAGCGCCAGAGCUACAGAAAUGUAAUUGACGAGGAGGAGGUUUAUCGAAUUUUCGGCGGAUGCCUCCAAA [A15G G29A]  self-cleavage kobs at 160 uM GlcN6P     =        0.000309
22  AUAAAAGCGCCAGCACUACAGAAAUGUAGUUAACGAGGAGGAGGUUUAUCGAAUUUUCGGCGGAUGCCUCCAAA [A14C G32A]  self-cleavage kobs at 160 uM GlcN6P     =        0.000388
23  AUAAAAGCGCCAGAACUACAGAAAUGUAGUUGACGAGGAGUAGGUUUAUCGAAGUUUCGGCGGAUGCCUCCAAA [G41U U54G]  self-cleavage kobs at 160 uM GlcN6P     =        0.000463
24  AUAAAAGCGCCAGAACUACAGAAAUGUAGUUGACGAGGAGUAGGUUUAUCGAAUUUUCGUCGGUUGCCUCCAAA [G41U G60U A64U]  self-cleavage kobs at 160 uM GlcN6P     <           1e-05
25  AUAAAAGCGCCAGAACUACAGAAAUGUAGUUGACGAGGAGGAGGUUGAUCGAAUUUUCGGCGGAUGCGUCCAAA [U47G C68G]  self-cleavage kobs at 160 uM GlcN6P     =        0.000166
26  AUAAAAGCGCCAGAACUACAGAAAUGUAGUUGACGAGGAGGAGGUUUAUCGAAUUUUGGGCGGAUGCUUCCAAA [C58G C68U]  self-cleavage kobs at 160 uM GlcN6P     =        7.05e-05
27  AUAAAAGCGCCAGAACUACAGAAAUGUAGUUGACGAGGCGGAGGUUUUUCGAAUUUUCGGCGGAUGCCUCCAAA [A39C A48U]  self-cleavage kobs at 160 uM GlcN6P     <           1e-05
28  AUAAAAGCGCCCGAACUACAGAAAUGUAGUUGACGAGGAGGAGGUUUAUCGAAUUAUCGGCGGAUGACGCCAAA [A12C U56A C67A U69G]  self-cleavage kobs at 160 uM GlcN6P     =        8.14e-05
29  AUAAAAGCGCCUGAACUACAGAAAUGUAGUUGACGAGGAUGAGGUUUAUCGAAUUUUCGGCGGAUGCCUCCAAA [A12U G40U]  self-cleavage kobs at 160 uM GlcN6P     =        0.000749
30  AUAAAAGCGCCCGAUUUACAGAAAUGUAGUUGACGAGGAGGAGGUUUAUCGAAUUUUCGGCGGAUGCCUUCAAA [A12C A15U C16U C70U]  self-cleavage kobs at 160 uM GlcN6P     =         5.1e-05
31  AUAAAAGCGCCAGAACUACAGAAAUGUAGUUGACGAGGACGCGGUUUAUCGAAUUUUCGGCGGAUGCCUCCAAA [G40C A42C]  self-cleavage kobs at 160 uM GlcN6P     <           1e-05
32  ACAAAAGCGCCAGAAGUACAGAAAUGUAGUUGACGAGGAGGAGGUUUAUCGACUUUUCGGCGGAUGCCUCCAAA [U2C C16G A53C]  self-cleavage kobs at 160 uM GlcN6P     =        4.66e-05
33  AUAAAAGCGCCAGAAGUACAGAAAUGUAGUUGACGAGGAGGAGGUUUAUCGAAUUUUCGGCGGGUGCCUCCAAA [C16G A64G]  self-cleavage kobs at 160 uM GlcN6P     =        0.000468
34  AUAAAAGCGCCUGAACUACAGAAAUGUAGUUGACGAGGAGGAGGUUUAUCGAAUUUUCGGCGGGUGCCUCCAAA [A12U A64G]  self-cleavage kobs at 160 uM GlcN6P     =          0.0025
35  AUAAAAGCGCCAGAACUACAGAAAUGUAGUGGAUGAGGAGGGGGUUUAUCGAAUUUUCGGCGGAUGCCUCCAAA [U31G C34U A42G]  self-cleavage kobs at 160 uM GlcN6P     <           1e-05
36  AUAAAAGCGCCAGAACUACAGAAAUGUAGUUGACGGGGAGGUGGUUUAUCGAAUUCUCGGCGGAUGCCUCCAAA [A36G A42U U56C]  self-cleavage kobs at 160 uM GlcN6P     <           1e-05
37  AUAAAAGCGCCAGAACUACAGAAAUGUAGUUGACGAGCAGUAGGUUUAUCGAAUUUUCGGCGCAUGCCUCCAAA [G38C G41U G63C]  self-cleavage kobs at 160 uM GlcN6P     <           1e-05
38  AUAAAUGCGCCAGAACUACAGAAAUGUAGUUGACGAGGAGGAGGUUUAUCGAAUUUUCGGGGGAUGCCUCCAAA [A6U C61G]  self-cleavage kobs at 160 uM GlcN6P     <           1e-05
39  AUAAAAGCGCCAGAACUACAGAAAUGUAGUUGACGAGGAGGAGGUUUAUCGAAUUUUCGGCGGAUGUCUCGAAA [C67U C71G]  self-cleavage kobs at 160 uM GlcN6P     =        3.83e-05
40  AUAAAAGCGCCAGAACUACAGAAAUGUAGUUGACGAGGAGGAGGUUUAUCCAAUUUUCUGCGGAUGCCUCCAAA [G51C G59U]  self-cleavage kobs at 160 uM GlcN6P     <           1e-05
41  AUAAAAGCGCCAGAAAUACAGAAAUGUAGUUGACUAUGAGGAGGUUUAUCGAAUUUUCGGCGGAGGCCUCCAAA [C16A G35U G37U U65G]  self-cleavage kobs at 160 uM GlcN6P     <           1e-05
42  AUAAAAGCGCCAGUACUACAGAAAUGUAGUUGACGAGGAGGAGGUUUAUCGAAUUUUCUGCGGAUGCCUCCAAA [A14U G59U]  self-cleavage kobs at 160 uM GlcN6P     <           1e-05
43  AUAAAAGCGCCAGAACUACAGAAAUGUAGUUGACGAGGAGGAGGUUUAUCGAAUUUUCGGCGGAUGCCUCAAAA [C71A]  self-cleavage kobs at 160 uM GlcN6P     =         0.00104
44  AUAAAACCGCCAGAACUACAGAAAUGUAGUUGACGAGGAGGAGGUUUAUCGUAUUUUCGGCGGAUGCCUCCAAA [G7C A52U]  self-cleavage kobs at 160 uM GlcN6P     <           1e-05
45  AUAAAAGCGCCAGAACUACAGAAAUGUAGUUGACGAGGAGGAGGUCUAUCGAAUUUUCGGCUGAUGCCUCCAAA [U46C G62U]  self-cleavage kobs at 160 uM GlcN6P     <           1e-05
